# Procedure Summary: Intrinsic dissolution rate and solubility in 0.1 N HCl with 1% Tween 80 (USP <1087>)
# Type: physicochemical
# Experimental Context: sum of the 15-120 min time points; 0.1 N HCl with 1% Tween 80, 37° C.
Where a name gives a salt, the structure may show the parent alone.
Assign fulfilled whenever Solubility, Cumulative does not fall below 5 µg/mL; assign not fulfilled whenever it does.

# Molecule, Answer Label
rows = [
    ("[2H]C([2H])([2H])C(c1cc2nnc(-c3cc(F)ccc3F)n2nc1OCc1ncnn1C)(C([2H])([2H])[2H])C([2H])([2H])[2H] [Malonate Salt]", "fulfilled"),
    ("[2H]C([2H])([2H])C(c1cc2nnc(-c3cc(F)ccc3F)n2nc1OCc1ncnn1C)(C([2H])([2H])[2H])C([2H])([2H])[2H] [Tosylate Salt]", "fulfilled"),
]

Moving on to the next molecule.
Item [2H]C([2H])([2H])C(c1cc2nnc(-c3cc(F)ccc3F)n2nc1OCc1ncnn1C)(C([2H])([2H])[2H])C([2H])([2H])[2H] [Phosphate Salt] with Solubility, Cumulative of 5 µg/mL or above?
not fulfilled

* * *

# Procedure Summary: Intrinsic dissolution rate and solubility in 0.1 N HCl with 1% Tween 80 (USP <1087>)
# Assay type: physicochemical
# Experimental Context: 0.1 N HCl with 1% Tween 80, 37 °C, aqueous with cosolvent or surfactant or cyclodextrin, 500 mL, pellet about 75 mg, 90 min, read-out: Solubility, time point 90 min
Counter-ions that a name gives are not always drawn.
Property Label: solubility at 90 min (µg/mL)
Give bare numbers, in µg/mL.

Requested read-out: solubility at 90 min. Entry: [2H]C([2H])([2H])C(c1cc2nnc(-c3cc(F)ccc3F)n2nc1OCc1ncnn1C)(C([2H])([2H])[2H])C([2H])([2H])[2H] [Hydrochloride Salt]
0.847

* * *

Kindly state Intrinsic Dissolution Rate IDR for each of the entries shown.
# Procedure Summary: Intrinsic dissolution rate and solubility in 0.1 N HCl with 1% Tween 80 (USP <1087>)
# Type: physicochemical
# Experimental Context: 0.1 N HCl with 1% Tween 80, 37° C., paddle 100 rpm, die surface 0.5 cm^2
Where a name gives a salt, the structure may show the parent alone.

# Molecule, Intrinsic Dissolution Rate IDR
rows = [
    ("[2H]C([2H])([2H])C(c1cc2nnc(-c3cc(F)ccc3F)n2nc1OCc1ncnn1C)(C([2H])([2H])[2H])C([2H])([2H])[2H] [Sulfate Salt]", "7.1 μg/(min · cm^2)"),
    ("[2H]C([2H])([2H])C(c1cc2nnc(-c3cc(F)ccc3F)n2nc1OCc1ncnn1C)(C([2H])([2H])[2H])C([2H])([2H])[2H] [Fumarate Salt]", "6.2 μg/(min · cm^2)"),
    ("[2H]C([2H])([2H])C(c1cc2nnc(-c3cc(F)ccc3F)n2nc1OCc1ncnn1C)(C([2H])([2H])[2H])C([2H])([2H])[2H] [Malonate Salt]", "6.9 μg/(min · cm^2)"),
    ("[2H]C([2H])([2H])C(c1cc2nnc(-c3cc(F)ccc3F)n2nc1OCc1ncnn1C)(C([2H])([2H])[2H])C([2H])([2H])[2H] [Phosphate Salt]", "7.0 μg/(min · cm^2)"),
    ("[2H]C([2H])([2H])C(c1cc2nnc(-c3cc(F)ccc3F)n2nc1OCc1ncnn1C)(C([2H])([2H])[2H])C([2H])([2H])[2H] [Maleate Salt]", "7.3 μg/(min · cm^2)"),
]

Now, please, on to the next molecule.
Requested read-out: Intrinsic Dissolution Rate IDR. Entry: [2H]C([2H])([2H])C(c1cc2nnc(-c3cc(F)ccc3F)n2nc1OCc1ncnn1C)(C([2H])([2H])[2H])C([2H])([2H])[2H] [Tosylate Salt]
8.7 μg/(min · cm^2)

* * *

Kindly state AUClast for each of the entries shown.
# Procedure Summary: Pharmacokinetic analysis of Compound 1 and its salts after oral capsule administration (Example 4)
# Format: in vivo, cynomolgus monkeys
# Experimental Context: 3 male cynomolgus monkeys, single PO capsule, 30 mg/kg, plasma Compound 1
Structures can show the parent of a compound that is named as a salt.
One number for each entry, in ng·h/mL.

As a guide, the following entries are already answered.
# Compound, AUClast / ng·h/mL
rows = [
    ("[2H]C([2H])([2H])C(c1cc2nnc(-c3cc(F)ccc3F)n2nc1OCc1ncnn1C)(C([2H])([2H])[2H])C([2H])([2H])[2H] [Hydrochloride Salt]", 25402),
    ("[2H]C([2H])([2H])C(c1cc2nnc(-c3cc(F)ccc3F)n2nc1OCc1ncnn1C)(C([2H])([2H])[2H])C([2H])([2H])[2H] [Tosylate Salt]", 23248),
]

Now, please, on to the next compound.
Requested read-out: AUClast. Entry: [2H]C([2H])([2H])C(c1cc2nnc(-c3cc(F)ccc3F)n2nc1OCc1ncnn1C)(C([2H])([2H])[2H])C([2H])([2H])[2H] [Sulfate Salt]
18231

* * *

# Procedure Summary: Intrinsic dissolution rate and solubility in 0.1 N HCl with 1% Tween 80 (USP <1087>)
# Type: physicochemical
# Experimental Context: 0.1 N HCl with 1% Tween 80, 37 °C, aqueous with cosolvent or surfactant or cyclodextrin, 500 mL, pellet about 75 mg, 30 min, read-out: Solubility, time point 30 min
Counter-ions that a name gives are not always drawn.
Property Label: solubility at 30 min (µg/mL)
Answers are plain numbers, in µg/mL.

Requested read-out: solubility at 30 min. Entry: [2H]C([2H])([2H])C(c1cc2nnc(-c3cc(F)ccc3F)n2nc1OCc1ncnn1C)(C([2H])([2H])[2H])C([2H])([2H])[2H] [Hydrochloride Salt]
0.358

* * *

Kindly state Solubility, Cumulative for each of the entries shown.
# Procedure Summary: Intrinsic dissolution rate and solubility in 0.1 N HCl with 1% Tween 80 (USP <1087>)
# Format: physicochemical
# Experimental Context: sum of the 15-120 min time points; 0.1 N HCl with 1% Tween 80, 37° C.
Structures can show the parent of a compound that is named as a salt.
Include the unit right after the number.

# Compound, Property Label, Observed Result
data = [
    ("[2H]C([2H])([2H])C(c1cc2nnc(-c3cc(F)ccc3F)n2nc1OCc1ncnn1C)(C([2H])([2H])[2H])C([2H])([2H])[2H] [Fumarate Salt]", "Solubility, Cumulative", "5.119 µg/mL"),
    ("[2H]C([2H])([2H])C(c1cc2nnc(-c3cc(F)ccc3F)n2nc1OCc1ncnn1C)(C([2H])([2H])[2H])C([2H])([2H])[2H] [Maleate Salt]", "Solubility, Cumulative", "5.057 µg/mL"),
]

Now, please, on to the next compound.
Requested read-out: Solubility, Cumulative. Entry: [2H]C([2H])([2H])C(c1cc2nnc(-c3cc(F)ccc3F)n2nc1OCc1ncnn1C)(C([2H])([2H])[2H])C([2H])([2H])[2H] [Sulfate Salt]
5.146 µg/mL
